# Target of assay: T1, 4H607-bH
# T1 chain: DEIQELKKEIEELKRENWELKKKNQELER
# Test description: two-hybrid library CCNG1;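 note: natural log of median RNA to DNA barcode read ratio; higher means stronger binding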
Readout kind: interaction score
Just the number, please, no unit after it.

>>> df
                                     binder       readout_kind  readout_number
0  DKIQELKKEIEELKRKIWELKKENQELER [4H2667-bH]  interaction score           0.145
1  DEIQELKKEIEELKRENWELKKKNQELER [4H607-bH]  interaction score           0.163
2  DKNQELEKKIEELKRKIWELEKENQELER [4H3427-bH]  interaction score           -1.37
3  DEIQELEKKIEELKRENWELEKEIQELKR [4H338-bH]  interaction score           0.393
4  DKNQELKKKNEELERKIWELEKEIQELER [4H4001-bH]  interaction score            -2.7

# input Could you tell me which interaction score is on file for DKNQELKKENEELKREIWELEKKIQELKR [4H3782-bH] ?
# output 0.717

# input Then DKNQELKKKIEELEREIWELKKKNQELER [4H3855-bH] ?
# output -1.71
